TESTED ON: Phospho-DNA-PK in FaDu Cells (Homo sapiens, UniProt P78527)
Construct: host or cells: FaDu
TEST METHOD NOTES: Effect of compounds on phospho-DNA-PK in FaDu cells (MesoScale sandwich immunoassay)
Format: cell-based
PARTICULARS: 1 hour pre-incubation, 1 μg/ml Neocarzinostatin 2 hours, averaged values, read-out: MSD FaDu IC50
PROPERTY NAME: pIC50
Answers are plain numbers, as −log10 of the molar value.

The following compounds have reported results that may help.
> print(dat)
                                   compound  observed.result
1  c1cnc2cc(N3CCOCC3)nc(OC3CCN(c4ncn[nH]4)CC3)c2c1             5.10
2  Oc1ccnc(NCC2CCN(c3nc(N4CCOCC4)cc4ncccc34)CC2)n1             5.18

Entry c1cnc(NC2CC3(CCN(c4nc(N5CCOCC5)cc5ncccc45)C3)C2)nc1 (mixture of isomers) ; pIC50 = 6.08
